System Tested: T1, siglec 12 expressed on HEK293 cells (UniProt Q96PQ1 19-595, limits assumed)
T1 construct: whole, on cells; also called Siglec-6 family member
T1 sequence (Q96PQ1 19-595 limits assumed): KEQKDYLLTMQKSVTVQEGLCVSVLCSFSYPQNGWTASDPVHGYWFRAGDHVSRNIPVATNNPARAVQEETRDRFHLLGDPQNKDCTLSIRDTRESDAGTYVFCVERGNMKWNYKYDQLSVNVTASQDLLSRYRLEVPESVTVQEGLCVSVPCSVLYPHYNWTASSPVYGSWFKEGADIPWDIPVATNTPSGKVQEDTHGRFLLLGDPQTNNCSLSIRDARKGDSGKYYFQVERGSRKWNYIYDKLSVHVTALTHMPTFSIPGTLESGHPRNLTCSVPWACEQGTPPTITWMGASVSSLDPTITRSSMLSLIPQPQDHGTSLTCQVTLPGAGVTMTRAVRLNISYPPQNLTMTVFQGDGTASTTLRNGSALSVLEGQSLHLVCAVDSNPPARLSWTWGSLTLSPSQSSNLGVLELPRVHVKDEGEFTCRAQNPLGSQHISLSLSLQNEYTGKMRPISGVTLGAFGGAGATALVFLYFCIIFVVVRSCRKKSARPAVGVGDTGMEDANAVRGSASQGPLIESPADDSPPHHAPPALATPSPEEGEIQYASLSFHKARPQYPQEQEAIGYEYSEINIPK
Protocol Summary: flow cytometry on HEK293 cells expressing the target
Recorded Endpoint: binding result

- hRND-3 (antibody, human IgG1, kappa, V domains shown, also called humanized RND-3; hRND-H3 / hRND-L3; copies: 2 + 2) VH: QVQLVQSGAEVKKPGASVKLSCKASGYAFTSYWMHWVRQAPGQRLEWIGEIYPTNGGTTYAQKFQGRATLTVDKSTSTAYMELSRLRSDDTAVYYCTIEDFYAMDYWGQGTTVTVSS VL: DIVMTQTPLSLSVTPGQPASISCKSSQSLLDSDGKTSLNWLLQKPGQSPQRLIYLVSKLDSGVPDRFSGSGSGTDFTLKISRVEAEDVGVYYCWQGTHFPYTFGQGTKLEIKR: no binding
- hRND-5 (antibody, human IgG1, kappa, V domains shown, also called humanized RND-5; hRND-H3b / hRND-L3; copies: 2 + 2) VH: QVQLVQSGAEVKKPGASVKLSCKASGYAFTSYWMHWVRQAPGQRLEWIGEIYPTNGGTTYNEKFKRRATLTVDKSTSTAYMELSRLRSDDTAVYYCTIEDFYAMDYWGQGTTVTVSS VL: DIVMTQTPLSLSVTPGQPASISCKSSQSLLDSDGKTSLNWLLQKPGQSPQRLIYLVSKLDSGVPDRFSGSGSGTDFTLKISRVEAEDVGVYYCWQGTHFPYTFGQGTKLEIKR: no binding
- hRND-4 (antibody, human IgG1, kappa, V domains shown, also called humanized RND-4; hRND-H2b / hRND-L3; copies: 2 + 2) VH: QVQLVQSGAEVKKPGASVKVSCKASGYAFTSYWMHWVRQAPGQRLEWMGEIYPTNGGTTYNEKFKRRVTMTVDKSTSTAYMELSRLRSDDTAVYYCTIEDFYAMDYWGQGTTVTVSS VL: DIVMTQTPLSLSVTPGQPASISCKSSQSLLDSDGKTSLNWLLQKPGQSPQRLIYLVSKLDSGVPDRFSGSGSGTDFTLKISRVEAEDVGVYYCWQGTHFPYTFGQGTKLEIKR: no binding
- hRND-2 (antibody, human IgG1, kappa, V domains shown, also called humanized RND-2; hRND-H2 / hRND-L3; copies: 2 + 2) VH: QVQLVQSGAEVKKPGASVKVSCKASGYAFTSYWMHWVRQAPGQRLEWMGEIYPTNGGTTYAQKFQGRVTMTVDKSTSTAYMELSRLRSDDTAVYYCTIEDFYAMDYWGQGTTVTVSS VL: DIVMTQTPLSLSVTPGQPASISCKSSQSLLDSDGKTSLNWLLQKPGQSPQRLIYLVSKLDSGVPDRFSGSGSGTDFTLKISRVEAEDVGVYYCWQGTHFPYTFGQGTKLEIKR: no binding
